Tested on: 786-0 renal
assay_info: NCI tumour cell line growth inhibition, 48 h; in the data active means GI50 below about 0.43 µM; inactive means the rest
Hello, when you answer, please use one of the following outcomes: 1 = active, -1 = inactive

{"compound": "C=C1c2c(C)nn(-c3ccc(OC)cc3)c2N(C)C23C[C@@H]1C1(C)c4c(C)nn(-c5ccc(OC)cc5)c4N(C)C(C)(C[C@H]12)C3 (stereo partly drawn)", "system_under_test": "786-0 renal", "class_label": -1}
{"compound": "Cn1c(=O)n(CCCO)c(=O)c2c1nc(Oc1cccc(OC(F)(F)F)c1)n2Cc1ccc(Cl)cc1", "system_under_test": "786-0 renal", "class_label": -1}
{"compound": "COc1ncc(-c2ccc3nccc(C#CCCCCC(=O)O)c3c2)cc1NS(=O)(=O)c1ccc(F)cc1F", "system_under_test": "786-0 renal", "class_label": -1}

Please examine the following record next.
// query Each compound tested received a call. Report the one for CCOC(=O)c1ccc2c(c1)[n+](=O)c(C(=O)C1CCCS1)c(C(F)(F)F)n2[O-] (stereo not drawn) .
// result 1

---

Tested on: HL-60(TB) leukemia
assay_info: NCI tumour cell line growth inhibition, 48 h
Outcome: true (1) for TGI of at least 70 µM; false (0) for anything lower.

{"compound": "CC(=O)Oc1ccc2[nH]c3c(C)c4cccc-4ccc3c2c1", "system_under_test": "HL-60(TB) leukemia", "class_label": "false (0)"}
{"compound": "CC1=C(C(=O)OCc2ccncc2)C(C2=C(C)SCCS2)C(C(=O)OCc2ccncc2)=C(C)N1", "system_under_test": "HL-60(TB) leukemia", "class_label": "true (1)"}
{"compound": "CCN1C(=O)N(C)C(O)c2c1nc1ccccn1c2=O (stereo not drawn)", "system_under_test": "HL-60(TB) leukemia", "class_label": "true (1)"}
{"compound": "O=C1NC2c3c(I)sc(I)c3/C(=N\\O)C2O1 (stereo not drawn)", "system_under_test": "HL-60(TB) leukemia", "class_label": "true (1)"}
{"compound": "CC1OC(OC2C(O)C(OCCc3ccc(O)c(O)c3)OC(CO)C2OC(=O)/C=C/c2ccc(O)c(O)c2)C(O)C(O)C1OC1OCC(O)(CO)C1O (stereo not drawn)", "system_under_test": "HL-60(TB) leukemia", "class_label": "true (1)"}

// query Confirm if TGI reported for the compound COc1ccc2c3c1O[C@H]1[C@@H](O)CC[C@@]4(O)[C@@H](C2)N(C)CC[C@]314 is 70 µM or above.
// result true (1)

// query Confirm if TGI reported for the compound COC(=O)[C@]12CC[C@H]3CN(C(=O)OCc4ccccc4)[C@H]([C@H]31)[C@H](c1ccco1)N2 is 70 µM or above.
// result true (1)

// query Confirm if TGI reported for the compound CCN1C(=O)C(=C/C=C/c2ccc(OC)cc2)C(=O)N(CC)C1=S is 70 µM or above.
// result true (1)

// query Confirm if TGI reported for the compound c1ccc2c(c1)c1ccccc1c1n[se]nc21 is 70 µM or above.
// result true (1)

// query Confirm if TGI reported for the compound Cc1ccc(/C(=N/NS(=O)(=O)c2ccc([N+](=O)[O-])cc2)Sc2cc(Cl)c(C)cc2S(N)(=O)=O)cc1 is 70 µM or above.
// result true (1)

---

Test system: U251 CNS
assay_info: NCI tumour cell line growth inhibition, 48 h
Listed below: TGI values for each entry.

{"compound": "COc1cc(C2NCCC(c3ccccc3)(c3ccccc3)N2)cc(OC)c1OC (centres undefined)", "TGI": "> 100 µM"}
{"compound": "COC(=O)C1C(O)C(C)C(=O)C(C)/C=C\\C=C(C)C(=O)Nc2c(C)c(OC(C)=O)c3c(c2O)C(=O)C(C)=C2OCOC(=C23)C(C)=CC(C)(O)C(O)C(C)C1O (centres undefined)", "TGI": "> 100 µM"}
{"compound": "CC(/C=N/N(C)C1=NCCCN1)=N/N(C)C1=NCCCN1", "TGI": "> 100 µM"}
{"compound": "COc1ccc2c(c1)C(N)=C(c1ccccc1OC)C2=O", "TGI": "> 100 µM"}
{"compound": "CCOC(=O)/C=C/C1=C(c2ccsc2)c2ccc(OC)cc2CC1", "TGI": "> 100 µM"}

// query // TGI lookup, key: N#Cc1c(-c2ccc([N+](=O)[O-])cc2)cc(-c2ccc(Nc3ccnc4cc(C(F)(F)F)ccc34)cc2)[nH]c1=O
// result 21.9 µM

// query // TGI lookup, key: CCOP(=S)(OCC)Oc1ccc2c(c1)OC(=O)C1(Cl)C2(C)C2(Cl)C(=O)Oc3cc(OP(=S)(OCC)OCC)ccc3C12C (centres undefined)
// result 20 µM

// query // TGI lookup, key: N#C/C(C(=O)Nc1ccccc1)=C(/N)N1CCCC1
// result > 100 µM

// query // TGI lookup, key: O=C1O[C@@H](c2ccccc2)C[C@H]1CN1CCOCC1
// result > 100 µM

---

Tested on: NCI/ADR-RES ovarian
assay_info: NCI tumour cell line growth inhibition, 48 h
parameter: TGI

Here's what some known entries look like.
{"compound": "CC(/C=N/N(C)C1=NCCCN1)=N/N(C)C1=NCCCN1", "TGI": "> 100 µM"}
{"compound": "N#C/C(C(=O)Nc1ccccc1)=C(/N)N1CCCC1", "TGI": "> 100 µM"}
{"compound": "Cc1ccc(/C(=N/NS(=O)(=O)c2ccc([N+](=O)[O-])cc2)Sc2cc(Cl)c(C)cc2S(N)(=O)=O)cc1", "TGI": "> 100 µM"}
{"compound": "O=C1C=CC(=O)c2c(O)ccc(O)c21", "TGI": "3.72 µM"}
{"compound": "O=C(CCC(C(=O)OCc1ccccc1)C(=O)OCc1ccccc1)Nc1ccc(OCc2ccccc2)cc1", "TGI": "> 100 µM"}

// query // TGI lookup, key: Fc1c(F)c(F)c2c(c1F)CSc1nc3ccccc3n1-2
// result > 100 µM

// query // TGI lookup, key: O=C1c2scc(-c3ccccc3)c2-n2cccc21
// result 35.4 µM

// query // TGI lookup, key: COC1CCN(N(C)C)O1 (stereo unspecified)
// result > 100 µM

// query // TGI lookup, key: NCCc1c[nH]c2ccc(OC(=O)C(=O)O)cc12
// result > 100 µM

// query // TGI lookup, key: CCOC(=O)c1nc2cc(C(F)(F)F)ccc2nc1Oc1ccc(OC)cc1
// result > 100 µM

// query // TGI lookup, key: O=C(CN=C(CN(c1ccccc1)c1ccccc1)Oc1c(Cl)cc(Cl)cc1Cl)N1c2ccccc2Sc2ccccc21
// result > 100 µM

---

Listed below: GI50 values for each entry.
Test system: SN12C renal
assay_info: NCI tumour cell line growth inhibition, 48 h

Here's what some known entries look like.
{"structure_string": "O=C(NC(=S)Nc1ccccn1)c1ccccc1", "GI50": "> 100 µM"}
{"structure_string": "C[C@]1(O)CC[C@H]2[C@@H]3CCc4cc(O)ccc4[C@H]3CC[C@@]21C", "GI50": "10.2 µM"}
{"structure_string": "O=C(Nc1cccc(-n2ccc3c(NC(=O)c4ccccc4)nccc32)c1)Nc1ccc(Cl)c(C(F)(F)F)c1", "GI50": "0.82 µM"}
{"structure_string": "O=c1c2c([nH]c3ccccc13)CCCC2", "GI50": "> 100 µM"}

Attention now turns to another entry.
// query // GI50 lookup, key: Cn1c(=O)n(CCCO)c(=O)c2c1nc(Oc1cccc(OC(F)(F)F)c1)n2Cc1ccc(Cl)cc1
// result 13 µM

---

Listed below: TGI values for each entry.
System: BT-549 breast
assay_info: NCI tumour cell line growth inhibition, 48 h

Here's what some known entries look like.
{"compound": "COC1CCN(N(C)C)O1 (configuration not stated)", "TGI": "> 100 µM"}
{"compound": "O=C(Nc1c(Cl)cccc1Cl)c1c(Cl)c(Cl)c(Cl)c(Cl)c1-c1nc2ccccc2[nH]1", "TGI": "> 100 µM"}

// query // TGI lookup, key: O=C1C(Cl)=C(Nc2cccc(O)c2)C(=O)N1CCc1ccccc1
// result 47.1 µM

// query // TGI lookup, key: O=C(ON=c1c2ccccc2ccc2ccccc12)c1ccccc1
// result 64.2 µM

// query // TGI lookup, key: c1ccc(NNC2=NCCN2)cc1
// result > 100 µM

// query // TGI lookup, key: N#Cc1c(-c2ccc(Cl)cc2)csc1NC(=O)Nc1ccc(Cl)c(C(F)(F)F)c1
// result 4.54 µM

// query // TGI lookup, key: COc1ccc(/C=C/c2nsc(/C=C/c3ccc(OC)cc3)n2)cc1
// result > 100 µM

---

Listed below: TGI values for each entry.
Tested on: SNB-75 CNS
assay_info: NCI tumour cell line growth inhibition, 48 h

Here's what some known entries look like.
{"molecule": "COC(=O)C1C(O)C(C)C(=O)C(C)/C=C\\C=C(C)C(=O)Nc2c(C)c(OC(C)=O)c3c(c2O)C(=O)C(C)=C2OCOC(=C23)C(C)=CC(C)(O)C(O)C(C)C1O (configuration not stated)", "TGI": "> 100 µM"}
{"molecule": "NC(=S)N/N=C/c1c[nH]c2ccccc12", "TGI": "> 100 µM"}
{"molecule": "O=C(NC(=S)Nc1ccccn1)c1ccccc1", "TGI": "> 100 µM"}
{"molecule": "N#Cc1c(-c2ccc([N+](=O)[O-])cc2)cc(-c2ccc(Nc3ccnc4cc(C(F)(F)F)ccc34)cc2)[nH]c1=O", "TGI": "> 100 µM"}
{"molecule": "COc1ccc(-c2nnc(COc3ccc(Cl)cc3Cl)o2)cc1OC", "TGI": "3.36 µM"}
{"molecule": "COc1cccc(/C=C/c2ccc(S(N)(=O)=O)cc2)c1", "TGI": "91.2 µM"}

// query // TGI lookup, key: C[n+]1cn(C2=C([O-])c3ccccc3C(=O)/C2=N\S(=O)(=O)c2ccccc2)c2ccccc21
// result > 100 µM

// query // TGI lookup, key: Cc1cc(NS(=O)(=O)c2ccc(Nc3c4ccccc4nc4c(C(=O)Nc5ccc(S(N)(=O)=O)cc5)cccc34)cc2)no1
// result > 100 µM

// query // TGI lookup, key: CCOC(=O)c1c(NC(=O)COc2cccc3cccnc23)sc(C(=O)N(C)C)c1C
// result 63.1 µM

// query // TGI lookup, key: O=C1O[C@@H](c2ccccc2)C[C@H]1CN1CCOCC1
// result > 100 µM

// query // TGI lookup, key: O=C1c2ccccc2C(=O)c2c1c(=O)c(=O)c1ccccc1c(=O)n2Cc1ccccc1
// result > 100 µM

// query // TGI lookup, key: CCCCC1CC(c2ccc(Cl)cc2)=NO1 (configuration not stated)
// result > 100 µM

// query // TGI lookup, key: Nc1nc2[nH]c(=O)cnc2c(=O)[nH]1
// result > 125 µM

// query // TGI lookup, key: COc1cc(N2C(=O)C(=O)C3(CCCCC3)C2=O)cc(OC)c1OC
// result > 100 µM

// query // TGI lookup, key: Cc1cc(C#N)c[n+](C)c1
// result > 100 µM

// query // TGI lookup, key: COc1cccc2c1C(=O)c1c(O)c3c(c(O)c1C2=O)CC(O)(/C(C)=N/NC(=O)CCCCC(=O)N/N=C(\C)C1(O)Cc2c(O)c4c(c(O)c2C(OC2CC(N)C(O)C(C)O2)C1)C(=O)c1c(OC)cccc1C4=O)CC3OC1CC(N)C(O)C(C)O1 (configuration not stated)
// result 0.867 µM

// query // TGI lookup, key: Oc1ccc(-c2nc3ccc4ccccc4c3c3c2CCCC3)c(O)c1
// result > 100 µM
